// data source = patent US20230357447A1

What CD28 scFv signal in presence of CD28 was measured for each of the following?
- Target under test: T1, Anti-CD28 scFv (VH-linker 1-VL) (biotinylated (site not stated))
- T1 construct: biotinylated and captured on neutravidin coated plates in the phage ELISA
- T1 sequence (scFv, as listed by the source): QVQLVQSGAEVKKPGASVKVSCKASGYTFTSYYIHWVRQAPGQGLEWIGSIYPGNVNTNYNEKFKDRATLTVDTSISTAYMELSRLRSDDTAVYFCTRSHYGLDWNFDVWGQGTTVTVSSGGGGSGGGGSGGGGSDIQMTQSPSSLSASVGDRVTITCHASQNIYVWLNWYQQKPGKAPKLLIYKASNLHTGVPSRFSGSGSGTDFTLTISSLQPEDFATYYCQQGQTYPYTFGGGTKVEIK
- Assay name: phage binding ELISA on captured anti-CD28 scFv, wells pre-incubated with soluble CD28 (competitor);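 note: crude clonal phage supernatants added without washing, bound phage detected by HRP-conjugated anti-M13 antibody, control wells held blocking buffer alone instead of CD28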
Give the figure only, with no unit attached.

Prompt: Which measured CD28 scFv signal in presence of CD28 value corresponds to MDWCPRALWNVCFA [Phage-329] ?
Response: 0.249

Prompt: Which measured CD28 scFv signal in presence of CD28 value corresponds to MFWCPSTMWNRCFD [Phage-420] ?
Response: 0.138

Prompt: Which measured CD28 scFv signal in presence of CD28 value corresponds to MYWCPKYMWSECFA [Phage-418] ?
Response: 0.099

Prompt: Which measured CD28 scFv signal in presence of CD28 value corresponds to MDWCPRFLWDYCFA [Phage-335] ?
Response: 0.207

Prompt: Which measured CD28 scFv signal in presence of CD28 value corresponds to MDWCPSDMWSNCFN [Phage-413] ?
Response: 0.121

Prompt: Which measured CD28 scFv signal in presence of CD28 value corresponds to MSWCPRFMWHECFN [Phage-411] ?
Response: 0.246

Prompt: Which measured CD28 scFv signal in presence of CD28 value corresponds to MDWCPWFLWNECFN [Phage-350] ?
Response: 0.279

Prompt: Which measured CD28 scFv signal in presence of CD28 value corresponds to MDWCPRILWHECFS [Phage-362] ?
Response: 0.174
